Each recorded value in this set is attributed to PubChem BioAssay (NCATS).

# Experiment Description: Quantitative high throughput screen for delayed death inhibitors of the malarial parasite plastid, 48 hour incubation (AID 488752); also: nearly all actives have a fitted effect of over 65% in size
# Experimental Setup: Plasmodium falciparum growth; series mostly up to 28.7 µM
Inconclusive results are not listed. The source made the active and inactive calls. Calls follow the shape of the dose curve; as a rule, active = well fitted inhibition curve with a large enough effect; inconclusive = small, poorly fitted or top-dose-only effect, or effect the other way; inactive = flat fitted curve, though single readings scatter.
Result category, one only: y (active), n (inactive)

The following molecules have reported results that may help.
Molecule	Label Class
CN(N=O)c1ccc(O)c(O)c1	n
CN1CC[C@@]2(C)c3cc(O)ccc3N(C)C12 (stereo partly drawn)	y

Would you kindly look at the next entry?
[in] Hello, I am checking results. What call was entered for `CNc1ccc2oc(C[C@H]3O[C@@]4(CC[C@H]3C)O[C@H]([C@H](C)C(=O)c3ccc[nH]3)[C@H](C)C[C@H]4C)nc2c1C(=O)O` ?
[out] y

----------
The entries below are paired with their reported max response.
# Experiment Description: qHTS Assay for Lipid Storage Modulators (AID 1519)
# Experimental Setup: Drosophila S3 cells, BODIPY lipid droplet/cell ratio, laser cytometry; measured here: lipid channel max response; cells loaded with oleic acid
# Protocol: NIH Molecular Libraries Probe Production Centers Network [MLPCN] NIH Chemical Genomics Center [NCGC] Assay Submitter (PI): Beller, Mathias; Max-Planck-Institut fur Biophysikalische Chemie […] We dispensed 4 uL of cells at 1.25 x 10^6 cells/mL into LoBase Aurora COC 1,536-well plates (black walled, clear bottom) with a bottle-valve solenoid-based dispenser (Aurora) to obtain 5,000 cells/well. […] The ratio of the total intensity in PMT channel 1 over total intensity of channel 3 was also calculated. […]
Records with an inconclusive call do not appear.
Give a bare numeral; the unit % is implied.

Molecule	Measurement Label	Units Of Measure	Value Observed
CN(N=O)c1ccc(O)c(O)c1	max response	%	-24.9

[in] Any idea what max response was measured for Oc1ccc2c3c1O[C@H]1c4oc5ccccc5c4C[C@@]4(O)C(C2)N(CC2CC2)CCC314 (some centres undefined) ?
[out] 72

[in] Same read-out for `CCCN(CCC)CCc1ccc(O)c(O)c1` ?
[out] -5.97

[in] Same read-out for `NC(=O)COc1c(F)cc(SCCNS(=O)(=O)c2ccccc2)cc1F` ?
[out] -0.0137

----------
# Experimental System: Muscarinic acetylcholine receptor M1 (Rattus norvegicus) (UniProt P08482)
# Sequence (P08482 whole entry, looked up): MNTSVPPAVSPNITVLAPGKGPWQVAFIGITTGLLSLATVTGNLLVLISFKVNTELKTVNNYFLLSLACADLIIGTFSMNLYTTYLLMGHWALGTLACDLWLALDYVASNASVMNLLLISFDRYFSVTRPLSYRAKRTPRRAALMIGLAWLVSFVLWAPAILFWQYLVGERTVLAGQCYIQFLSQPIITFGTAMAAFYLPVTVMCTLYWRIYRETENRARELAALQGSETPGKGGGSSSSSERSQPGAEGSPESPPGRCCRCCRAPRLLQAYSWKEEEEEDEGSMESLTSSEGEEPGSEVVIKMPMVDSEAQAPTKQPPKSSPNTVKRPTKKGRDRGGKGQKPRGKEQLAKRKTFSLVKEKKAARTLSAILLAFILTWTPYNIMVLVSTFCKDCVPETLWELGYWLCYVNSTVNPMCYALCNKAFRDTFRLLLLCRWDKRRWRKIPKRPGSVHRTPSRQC
# Experiment Description: qHTS Assay for Antagonists of Acetylcholine Muscarinic M1 Receptor: Measurement of IP-One Response (AID 944); also: nearly all actives have a fitted effect of over 75% in size; also: potency is read from the fitted curve at half-maximal effect
# Experimental Setup: CHO-M1 cells, IP-One HTRF, antagonist mode; series mostly up to 46.1 µM
Records with an inconclusive call do not appear. Calls of active or inactive are those of the source. Calls come from the whole dose curve; as a rule, active = well fitted inhibition curve with a large enough effect; inconclusive = small, poorly fitted or top-dose-only effect; inactive = no such curve, though single readings can be large or run the other way.
Measurement Label: Potency

For orientation, consider the following solved cases.
Item Smiles	Potency
C[N+](C)(C)CC#CCN1CCCC1=O	inactive
COc1ccc2[nH]cc(CCN)c2c1	inactive
CP(=O)(O)C1=CCNCC1	inactive
NCCc1ccc(S(=O)(=O)F)cc1	inactive
CC(=O)NBr	inactive
CC(C)(C)c1cc(C=C(C#N)C#N)cc(C(C)(C)C)c1O	1410 nM (active)

[in] Any idea what Potency was measured for `O=C(O)c1cc[c]([Hg][Cl])cc1` ?
[out] inactive

[in] Same read-out for `N[C@@H](Cn1oc(=O)[nH]c1=O)C(=O)O` ?
[out] inactive

----------
# Experiment Description: qHTS assay for small molecule agonists of the antioxidant response element (ARE) signaling pathway (AID 651741); also: potency is read from the fitted curve at half-maximal effect; as to activation: % of control where 0% means no effect
# Experimental Setup: HepG2 ARE-bla reporter, beta-lactamase FRET ratio, 16 h; series mostly up to 96 µM
Results filed as inconclusive are left out. Calls of active or inactive are those of the source. Calls follow the shape of the dose curve; as a rule, active = well fitted activation curve with a large enough effect in the signal ratio; inconclusive = small, poorly fitted or top-dose-only effect, or effect the other way, or a change in a side signal; inactive = flat fitted curve, though single readings scatter; the % refers to the signal ratio.
Measurement Label: Potency

For orientation, consider the following solved cases.
Item Smiles	Potency
Oc1cc(Cl)c(Cl)cc1Cl	42.2 µM (active)
CCCCCl	inactive
C=CCN=C=S	inactive
[O]=[Cr](=[O])([OH])[O][Cr](=[O])(=[O])[OH]	7.5 µM (active)
COC1=CC(=O)O[C@@H](/C=C/c2ccccc2)C1	5.31 µM (active)

--- query ---
[in] Any idea what Potency was measured for `[O]=[Cd]` ?
[out] inactive

----------
# Test system: Tov-21-G
# Experiment Description: Primary qHTS to identify gynecologic anti-cancer compounds using libraries of approved drugs and bioactive compounds (AID 1345084); also: nearly all actives have a fitted effect of over 55% in size; also: potency is read from the fitted curve at half-maximal effect
# Experimental Setup: Gynecologic cancer cell panel viability, ATPlite luminescence, 48 h; series mostly up to 57.5 µM
Inconclusive results are not listed. Calls of active or inactive are those of the source. Calls follow the shape of the dose curve; as a rule, active = well fitted cell-killing curve with a large enough effect; inconclusive = small, poorly fitted or top-dose-only effect, or effect the other way; inactive = flat fitted curve, though single readings scatter.
Measurement Label: Potency

Compound	Measurement Label	Value Observed
COc1cc2c(cc1OC)[C@@]13CCN4CC5=CCO[C@H]6CC(=O)N2[C@H]1[C@H]6[C@H]5C[C@H]43	Potency	inactive
Cc1cn(C[C@H](N)C(=O)O)c(=O)n(Cc2cc(-c3ccccc3)sc2C(=O)O)c1=O	Potency	inactive
COC(=O)C12C(=O)C(C)(O)C(=O)C1(C)C(C)=CC1C34CCC(OC3=O)C(C)(CO)C4CCC12C (stereo not drawn)	Potency	inactive
CC(=O)OC1CC(O)C2(C)C(CC(OC(C)=O)C3(C)C2CCC2(C)C(c4ccoc4)C(=O)C4OC423)C1(C)C (stereo not drawn)	Potency	inactive
CO[C@@H]1[C@H](O)[C@@H](O[C@@H]2C[C@H]3CC[C@@H]4C(CC[C@]5(C)[C@@H](C6=CC(=O)OC6)CC[C@]45O)[C@@]3(C)[C@H](O)C2)O[C@H](C)[C@@H]1O[C@@H]1O[C@H](CO)[C@@H](O)[C@H](O)[C@H]1O (stereo partly drawn)	Potency	0.199 µM (active)
C[CH2][Hg][S]c1ccccc1C(=O)O	Potency	35.5 µM (active)
CCC(C)(OC(C)=O)C(=O)O[C@H]1[C@H](OC(C)=O)C[C@@H]2[C@@](C)([C@@H]3C[C@H]4C=CO[C@H]4O3)[C@H](C)C[C@H](OC(C)=O)[C@@]2(COC(C)=O)[C@@]12CO2 (stereo partly drawn)	Potency	inactive
COc1cc(C(=O)O[C@H]2[C@@H]3C=CO[C@@H](O[C@@H]4O[C@H](CO)[C@@H](O)[C@H](O)[C@H]4O)[C@@H]3[C@@]3(CO)O[C@@H]23)ccc1O	Potency	inactive

[in] Any idea what Potency was measured for `CN1[C@H]2C[C@H](OC(=O)[C@H](CO)c3ccccc3)C[C@@H]1[C@@H](O)C2` ?
[out] inactive

[in] Same read-out for `O=C1C[C@@H]2OCC=C3CN4CC[C@]56c7ccccc7N1[C@H]5[C@H]2[C@H]3C[C@H]46` ?
[out] inactive

[in] Same read-out for CN(C(=O)Cc1ccccc1)C(CN1CCCC1)c1ccccc1 (stereo not drawn) ?
[out] inactive

[in] Same read-out for `CCN1C[C@]2(COC)[C@H](O)C[C@H](OC)[C@]34[C@@H]5C[C@]6(O)[C@H](OC(=O)c7ccccc7)[C@@H]5[C@@](O)([C@H]([C@H](OC)[C@H]23)[C@@H]14)[C@@H](O)[C@@H]6OC` ?
[out] inactive

[in] Same read-out for CCOc1ccccc1-n1c(C(C)N2CCN(C(=O)COc3ccc(Cl)cc3)CC2)nc2ccccc2c1=O (stereo not drawn) ?
[out] 6.31 µM (active)

----------
# System: ATS189
# Experiment Description: qHTS profiling for inhibitors of Plasmodium falciparum proliferation (AID 504749); also: nearly all actives have a fitted effect of over 60% in size
# Experimental Setup: P. falciparum in erythrocytes, SYBR Green DNA, 72 h; series mostly up to 28.7 µM
Inconclusive results are not listed. Activity calls are given as the source filed them. Calls come from the whole dose curve; as a rule, active = well fitted inhibition curve with a large enough effect; inconclusive = small, poorly fitted or top-dose-only effect; inactive = flat fitted curve, though single readings scatter.
Result category, one only: active, inactive

Molecule	Label Class
C=CCC1(C(C)CCC)C(=O)N=C(S)NC1=O (stereo unspecified)	inactive
c1ccc2sc(SNC3CCCCC3)nc2c1	inactive
C=CCN1CC[C@]23c4c5ccc(O)c4O[C@H]2[C@@H](O)C=C[C@H]3[C@H]1C5	inactive
C[CH2][Hg][S]c1ccccc1C(=O)O	active
O=C1CN=C(c2ccccc2)c2cc(Cl)ccc2N1CC1CC1	inactive

[in] Hello, I am checking results. What call was entered for `COC1=CC=C2[C@H]3Cc4ccc(OC)c5c4[C@@]2(CCN3C)[C@H]1O5` ?
[out] inactive

[in] Same read-out for FC(F)OC(F)(F)C(F)Cl (stereo unspecified) ?
[out] inactive

[in] Same read-out for `O[C@H]1[C@H]2[C@H](O)CCCN2C[C@H]1O` ?
[out] inactive

[in] Same read-out for C[C@H]1CC[C@@H]2[C@@H](C)[C@H]3[C@H](C[C@H]4[C@@H]5CC=C6CC(O[C@@H]7O[C@H](CO)[C@H](O)[C@H](O[C@@H]8O[C@H](CO)[C@@H](O)[C@H](O)[C@H]8O)[C@H]7O[C@H]7O[C@@H](C)[C@H](O)[C@@H](O)[C@H]7O)CC[C@]6(C)[C@H]5CC[C@]34C)N2C1 (stereo partly specified) ?
[out] inactive

[in] Same read-out for `S=C(S)N1CCNCC1` ?
[out] inactive

[in] Same read-out for `O=[N+]([O-])C(Br)(CO)CO` ?
[out] inactive
